Values from BigSolDB 2.1

# study-conditions: in isopropanol, 323.15 K
measured-quantity: solubility (mole fraction)
Form rule: numeric answer, no unit written next to it.

Consider the compound C=NCC#N . State its measured solubility (mole fraction).
0.00411

====

# study-conditions: in isopropanol, 318.15 K
measured-quantity: solubility (mole fraction)
Form rule: numeric answer, no unit written next to it.

Consider the molecule C=NCC#N . State its measured solubility (mole fraction).
0.00338

====

# study-conditions: in isopropanol, 283.15 K
measured-quantity: solubility (mole fraction)
Form rule: numeric answer, no unit written next to it.

Consider the compound C=NCC#N . State its measured solubility (mole fraction).
0.000826

====

# study-conditions: in isopropanol, 308.15 K
measured-quantity: solubility (mole fraction)
Form rule: numeric answer, no unit written next to it.

Consider the compound C=NCC#N . State its measured solubility (mole fraction).
0.00229

====

# study-conditions: in isopropanol, 303.15 K
measured-quantity: solubility (mole fraction)
Form rule: numeric answer, no unit written next to it.

Consider the molecule C=NCC#N . State its measured solubility (mole fraction).
0.00188
